These data points were gathered from ChEMBL document CHEMBL1137119.

- STUDY SYSTEM: Corticotropin-releasing factor receptor 1 (Homo sapiens)
- Sequence (P34998 whole entry): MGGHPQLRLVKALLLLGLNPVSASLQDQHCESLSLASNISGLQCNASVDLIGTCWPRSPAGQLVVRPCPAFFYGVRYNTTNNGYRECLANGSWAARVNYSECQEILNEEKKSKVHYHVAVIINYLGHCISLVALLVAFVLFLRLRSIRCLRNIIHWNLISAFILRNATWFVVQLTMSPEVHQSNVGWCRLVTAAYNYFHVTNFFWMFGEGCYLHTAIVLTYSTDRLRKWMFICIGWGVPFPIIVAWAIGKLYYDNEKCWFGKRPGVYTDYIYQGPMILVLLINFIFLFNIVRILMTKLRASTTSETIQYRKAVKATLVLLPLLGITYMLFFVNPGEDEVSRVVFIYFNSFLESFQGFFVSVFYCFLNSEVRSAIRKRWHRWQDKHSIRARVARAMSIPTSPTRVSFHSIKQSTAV
- EXPERIMENT SUMMARY: Binding affinity for recombinant human CRF1 receptor
VALUE TYPE: Ki (nM)

// solved cases for Ki follow
[
  {
    "SMILES RECORD": "CCCN(CCC)c1cc(C)nc2c(-c3ccc(Cl)cn3)c(C)nn12",
    "UNITS SYMBOL": "nM",
    "Ki": 88
  },
  {
    "SMILES RECORD": "CCCN(CCC)c1cc(C)nc2c(-c3ncccc3C)c(C)nn12",
    "UNITS SYMBOL": "nM",
    "Ki": 110
  },
  {
    "SMILES RECORD": "CCCN(CCC)c1cc(C)nc2c(-c3ncc(N(CC)CC)cc3C)c(C)nn12",
    "UNITS SYMBOL": "nM",
    "Ki": 13
  },
  {
    "SMILES RECORD": "CCCN(Cc1ccccc1)c1cc(C)nc2c(-c3ncc(C(F)(F)F)cc3Cl)c(C)nn12",
    "UNITS SYMBOL": "nM",
    "Ki": 1.7
  },
  {
    "SMILES RECORD": "CCCN(CCC)c1cc(C)nc2c(-c3ncc(NC)cc3C)c(C)nn12",
    "UNITS SYMBOL": "nM",
    "Ki": 40
  }
]

1 = CCCN(CCC)c1cc(C)nc2c(-c3ncc(C(F)(F)F)cc3Cl)c(C)nn12
2 = CCCN(CCOC)c1cc(C)nc2c(-c3ncc(Cl)cc3Cl)c(C)nn12
3 = CCCN(CC1CC1)c1cc(C)nc2c(-c3ncc(C(F)(F)F)cc3Cl)c(C)nn12
Q: Sequence the entries by Ki, beginning with the highest number. Reply with the labels, ordered as the question asks.
Result: 2, 1, 3
(2: 3.2 nM, 1: 1.2 nM, 3: 0.8 nM)
